Biological target: T1, hu-IL-36β (human IL-36β, N-terminally truncated active form R5-E157) (human)
T1 construct: Purification tag cleaved off; Biotinylated where captured; also called hu-IL-36b
T1 chain: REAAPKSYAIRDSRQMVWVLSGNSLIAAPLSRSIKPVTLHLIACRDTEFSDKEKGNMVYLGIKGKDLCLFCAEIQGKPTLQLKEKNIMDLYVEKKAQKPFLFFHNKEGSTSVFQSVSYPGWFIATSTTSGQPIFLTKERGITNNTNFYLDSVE
Experiment: SPR (Biacore 8K), biotinylated hu-IL-36β captured on CAP chip, Fab injected, 37°C
Property Measured: Kd
Report field: quantity (unit follows the number).

- Binder: "mAb6_2.7 Fab (Fab, V domains shown, Recombinant Fab with 8xHis tag (Expi293F)) VH: ELQLQESGPGLVKPSETLSLTCTVSGGSITASNTYWGWIRQPPGKGLEWIGSIDYTGSTYYNPSLKSRVTISVDTSKNQFSLKLSSVTAADTAVYYCATGKYYETYLGFDVWGQGTLVTVSS VL: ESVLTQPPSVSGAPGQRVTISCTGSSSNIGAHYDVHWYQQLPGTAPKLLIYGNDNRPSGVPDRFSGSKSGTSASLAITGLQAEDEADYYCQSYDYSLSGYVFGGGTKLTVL"
  Kd: "0.61 nM"
- Binder: "mAb6_2.6 Fab (Fab, V domains shown, Recombinant Fab with 8xHis tag (Expi293F)) VH: ELQLQESGPGLVKPSETLSLTCTVSGGSITASNYYWGWIRQPPGKGLEWIGSIDYTGSTYYEPSLKSRVTISVDTSKNQFSLKLSSVTAADTAVYYCATGNYYETYLGFDVWGQGTLVTVSS VL: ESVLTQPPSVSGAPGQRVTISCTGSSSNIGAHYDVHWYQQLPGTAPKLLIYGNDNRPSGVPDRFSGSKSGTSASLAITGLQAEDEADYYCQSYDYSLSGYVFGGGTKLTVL"
  Kd: "0.82 nM"

Read the next record carefully.
In plain terms, mAb6_2.10 Fab (Fab, V domains shown, Recombinant Fab with 8xHis tag (Expi293F)) VH: ELQLQESGPGLVKPSETLSLTCTVSGGSITSSNYYWGWIRQPPGKGLEWIGSIDYTGSTYYQPSLKSRVTISVDTSKNQFSLKLSSVTAADTAVYYCARGNYYETYLGFDVWGQGTLVTVSS VL: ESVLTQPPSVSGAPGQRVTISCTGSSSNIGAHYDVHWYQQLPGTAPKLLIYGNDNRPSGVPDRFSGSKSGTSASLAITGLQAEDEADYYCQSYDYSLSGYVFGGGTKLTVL has a documented Kd of 2.47 nM
